target: CDK8/Cyclin C (Homo sapiens); test: Inhibition of full length human recombinant His-tagged CDK8/Cyclin C expressed in baculovirus expression system by fluorescence polarization assay
Sequence (P49336 whole entry): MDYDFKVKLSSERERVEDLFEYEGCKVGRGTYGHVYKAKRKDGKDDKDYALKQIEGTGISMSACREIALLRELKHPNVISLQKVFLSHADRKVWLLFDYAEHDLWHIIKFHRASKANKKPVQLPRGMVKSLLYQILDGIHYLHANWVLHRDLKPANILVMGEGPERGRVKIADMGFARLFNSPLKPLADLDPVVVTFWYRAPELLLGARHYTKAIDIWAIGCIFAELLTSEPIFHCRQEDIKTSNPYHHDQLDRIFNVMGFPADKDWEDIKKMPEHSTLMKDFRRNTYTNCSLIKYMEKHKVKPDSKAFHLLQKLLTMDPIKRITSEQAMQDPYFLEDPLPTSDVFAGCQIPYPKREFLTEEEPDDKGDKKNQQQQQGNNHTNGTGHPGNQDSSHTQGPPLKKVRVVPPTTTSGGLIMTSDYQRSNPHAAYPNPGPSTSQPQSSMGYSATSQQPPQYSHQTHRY
Sequence (P24863 whole entry, further chain): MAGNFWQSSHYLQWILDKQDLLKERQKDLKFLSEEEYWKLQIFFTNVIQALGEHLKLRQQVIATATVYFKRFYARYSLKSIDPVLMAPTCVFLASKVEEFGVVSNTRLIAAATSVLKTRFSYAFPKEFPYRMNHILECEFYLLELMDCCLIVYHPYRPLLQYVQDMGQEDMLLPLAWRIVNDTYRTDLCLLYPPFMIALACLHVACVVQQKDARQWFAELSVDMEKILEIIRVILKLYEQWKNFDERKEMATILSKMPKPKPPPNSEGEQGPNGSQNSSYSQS
Measured Endpoint: IC50 (nM)

CCC(=O)c1cc2c(Oc3ccc(Cl)cc3)cncc2s1 29
N#Cc1ccc(Oc2cncc3sc(C(N)=O)cc23)cc1 5.1
NC(=O)c1cc2c(Oc3ccc(Cl)cc3)cnc(N)c2s1 1.5

[a] O=C(c1cc2c(Oc3ccc(Cl)cc3)cncc2s1)C1CC1
[b] FC(F)(F)Oc1ccc(Oc2cncc3sc(-c4nnn[nH]4)cc23)cc1
[c] CC(=O)Nc1ccc(Oc2cncc3sc(-c4nnn[nH]4)cc23)cc1
Ask | List the 3 entries from lowest IC50 to highest IC50 value. Labels, requested order.
Reply | b, c, a

[P] CNC(=O)c1cc2c(Oc3ccc(Cl)cc3)cncc2s1
[Q] CC(C)NC(=O)c1cc2c(Oc3ccc(Cl)cc3)cncc2s1
Ask | When P and Q are compared, which has the higher number for IC50? Kindly state the label of the option you pick.
Reply | Q

* * *

experiment: Antiproliferative activity against human HCT116 cells after 72 hrs by Celltiter-Glo reagent based assay in presence of 10% fetal bovine serum; assay type: functional, cell-based; settings: HCT-116, 72 h
Entries annotated with measured EC50

Examples with answers:
Compound	EC50
NC(=O)c1cc2c(Oc3ccc(OC(F)(F)F)cc3)cncc2s1	> 10 µM
Cc1ccc(Oc2cncc3sc(-c4nn[nH]n4)cc23)cc1	> 10 µM
NC(=O)c1cc2c(Oc3ccc(Cl)cc3)cnc(N)c2s1	6.7 µM
FC(F)(F)Oc1ccc(Oc2cncc3sc(-c4nnn[nH]4)cc23)cc1	> 10 µM
Clc1ccc(Oc2cncc3sc(-c4nnn[nH]4)cc23)cc1	> 10 µM
Cc1ncc(Oc2ccc(Cl)cc2)c2cc(C(N)=O)sc12	> 10 µM
CN1CC[C@H](c2c(O)cc(O)c3c(=O)cc(-c4ccccc4Cl)oc23)[C@H](O)C1 [ALVOCIDIB]	0.034 µM
O=C(O)c1cc2c(Oc3ccc(Cl)cc3)cncc2s1	> 10 µM

Please look at the following compound next.
Ask | I have this compound here, N#Cc1ccc(Oc2cncc3sc(-c4nnn[nH]4)cc23)cc1 , and I need its recorded EC50.
Reply | > 10 µM

* * *

biological target: CDK8/Cyclin C (Homo sapiens); test: Inhibition of full length human recombinant His-tagged CDK8/Cyclin C expressed in baculovirus expression system by fluorescence polarization assay
pIC50: −log10 of the molar value.
Measured Endpoint: pIC50

CC(=O)Nc1ccc(Oc2cncc3sc(C(N)=O)cc23)cc1 7.54

[I] NC(=O)c1ccc(Oc2cncc3sc(C(N)=O)cc23)cc1
[II] CNC(=O)c1cc2c(Oc3ccc(I)cc3)cncc2s1
Ask | Given I and given II , which shows the smaller recorded pIC50? Kindly state the label of the option you pick.
Reply | I

[I] NC(=O)c1ccc(Oc2cncc3sc(-c4nnn[nH]4)cc23)cc1
[II] NC(=O)c1cc2c(Oc3ccc(OC(F)(F)F)cc3)cncc2s1
Ask | When I and II are compared, which has the higher number for pIC50? Kindly state the label of the option you pick.
Reply | I
(I: 8.36, II: 7.92)

[P] NC(=O)c1ccc(-c2ccc(Oc3cncc4sc(-c5nn[nH]n5)cc34)cc2)cc1
[Q] Cc1ncc(Oc2ccc(Cl)cc2)c2cc(C(N)=O)sc12
Ask | Given P and given Q , which shows the smaller recorded pIC50? Kindly state the label of the option you pick.
Reply | Q

* * *

biological target: CDK8/Cyclin C (Homo sapiens); assay: Inhibition of full length human recombinant His-tagged CDK8/Cyclin C expressed in baculovirus expression system by fluorescence polarization assay
pIC50: −log10 of the molar value.
Measured Endpoint: pIC50

Examples with answers:
NC(=O)c1cc2c(Oc3ccc(Cl)cc3)cnc(F)c2s1 7.80
NC(=O)c1cc2c(Oc3ccc(Cl)cc3)cncc2s1 8.21
Cc1ccc(Oc2cncc3sc(C(N)=O)cc23)cc1 8.22
CCNC(=O)c1cc2c(Oc3ccc(Cl)cc3)cncc2s1 7.80

[P] CC(=O)c1cc2c(Oc3ccc(Cl)cc3)cncc2s1
[Q] c1ccc(Oc2cncc3sc(-c4nn[nH]n4)cc23)cc1
[R] CN(C)C(=O)c1cc2c(Oc3ccc(Cl)cc3)cncc2s1
Ask | List the 3 entries from lowest pIC50 to highest pIC50 value. Labels, requested order.
Reply | R, P, Q
(R: 7.12, P: 7.49, Q: 8.08)
